- tested target: Muscarinic acetylcholine receptor M3 (Cavia porcellus) (UniProt Q8VH26)
- Sequence (Q8VH26 1-587): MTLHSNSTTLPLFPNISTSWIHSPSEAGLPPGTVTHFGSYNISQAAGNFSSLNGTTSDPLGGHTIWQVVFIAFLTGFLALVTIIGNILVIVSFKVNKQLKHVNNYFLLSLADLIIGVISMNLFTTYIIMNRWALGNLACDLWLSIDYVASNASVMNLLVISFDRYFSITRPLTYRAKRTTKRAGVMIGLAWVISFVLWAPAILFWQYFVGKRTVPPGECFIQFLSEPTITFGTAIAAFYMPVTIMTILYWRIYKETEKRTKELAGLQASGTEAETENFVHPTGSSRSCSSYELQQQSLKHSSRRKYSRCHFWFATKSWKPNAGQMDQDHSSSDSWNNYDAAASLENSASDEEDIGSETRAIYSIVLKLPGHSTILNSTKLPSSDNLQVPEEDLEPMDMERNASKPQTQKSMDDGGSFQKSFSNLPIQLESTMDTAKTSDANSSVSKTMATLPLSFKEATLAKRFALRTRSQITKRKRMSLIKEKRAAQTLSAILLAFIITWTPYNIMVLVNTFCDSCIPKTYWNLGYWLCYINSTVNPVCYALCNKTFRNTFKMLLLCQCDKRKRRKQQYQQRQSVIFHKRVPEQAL
- assay remarks: Muscarinic potency was evaluated on guinea pig ileum at Muscarinic acetylcholine receptor M3 (expressed as -logED50)
- Assay type: functional, tissue-based
Cut-off 6 on pD2, inclusive. At or above means true; below means false.

- C[C@@H]1O[C@H](C[N+](C)(C)C)C[C@H]1F: true
- C[C@@H]1O[C@H](C[N+](C)(C)C)C[C@H]1O (racemic) [MUSCARINE]: true

Is pD2 for `C[C@@H]1O[C@@H](C[N+](C)(C)C)CC1(F)F` at or above 6? false

Is pD2 for `C[C@H]1O[C@H](C[N+](C)(C)C)CC1(F)F` at or above 6? false

Is pD2 for `C[C@@H]1O[C@H](C[N+](C)(C)C)CC1(F)F` at or above 6? false

Is pD2 for `C[C@H]1O[C@@H](C[N+](C)(C)C)CC1(F)F` at or above 6? false

---

- tested target: Muscarinic acetylcholine receptor M3 (Cavia porcellus) (UniProt Q8VH26)
- assay remarks: Intrinsic adtivitiy was measured by the ratio between the maximum response and the maximum response of muscarine in guinea pig bladder at Muscarinic acetylcholine receptor M3
- Type: functional
# reported Intrinsic activity; entries follow
Returns: the value as a bare number; no unit string appended.

• C[C@@H]1O[C@H](C[N+](C)(C)C)CC1(F)F = 0.83
• C[C@@H]1O[C@@H](C[N+](C)(C)C)CC1(F)F = 1
• C[C@H]1O[C@H](C[N+](C)(C)C)CC1(F)F = 0.67
• C[C@@H]1O[C@H](C[N+](C)(C)C)C[C@H]1F = 0.88

# input for lookup
The value of Intrinsic activity measured for the compound `C[C@H]1O[C@@H](C[N+](C)(C)C)CC1(F)F` turned out to be 0.95

---

# reported pD2; entries follow
- tested target: Muscarinic acetylcholine receptor M3 (Cavia porcellus)
- assay remarks: Muscarinic potency was evaluated on guinea pig bladder at Muscarinic acetylcholine receptor M3 (expressed as -logED50)
- Type: functional
Returns: the value as a bare number; no unit string appended.

Some solved entries appear below for comparison.
* C[C@@H]1O[C@H](C[N+](C)(C)C)C[C@H]1O (racemic) [MUSCARINE] | 5.69
* C[C@@H]1O[C@H](C[N+](C)(C)C)C[C@H]1F | 5.66
* C[C@@H]1O[C@H](C[N+](C)(C)C)CC1(F)F | 5.23

The value of pD2 measured for the compound `C[C@H]1O[C@H](C[N+](C)(C)C)CC1(F)F` turned out to be 3.95

The value of pD2 measured for the compound `C[C@@H]1O[C@@H](C[N+](C)(C)C)CC1(F)F` turned out to be 4.16

The value of pD2 measured for the compound `C[C@H]1O[C@@H](C[N+](C)(C)C)CC1(F)F` turned out to be 3.82

---

- Test system: Muscarinic acetylcholine receptor M2 (Cavia porcellus)
- assay remarks: Muscarinic potency was evaluated on guinea pig heart (force) at Muscarinic acetylcholine receptor M2 (expressed as -logED50)
Cut-off 6 on pD2, inclusive. At or above means MET; below means NOT MET.

Is pD2 for `C[C@H]1O[C@H](C[N+](C)(C)C)CC1(F)F` at or above 6? NOT MET

Is pD2 for `C[C@H]1O[C@@H](C[N+](C)(C)C)CC1(F)F` at or above 6? NOT MET

Is pD2 for `C[C@@H]1O[C@H](C[N+](C)(C)C)C[C@H]1F` at or above 6? MET

Is pD2 for `C[C@@H]1O[C@@H](C[N+](C)(C)C)CC1(F)F` at or above 6? MET

Is pD2 for `C[C@@H]1O[C@H](C[N+](C)(C)C)CC1(F)F` at or above 6? MET
